Tested on: S. pneumoniae UNT-038, MP-626, TP 160 (mefA)
measuredProperty: MIC

For record CSC1O[C@H]([C@H](NC(=O)[C@H]2NC[C@@H]3CN(Cc4ccccc4)CCO[C@H]32)[C@H](C)Cl)C(O)[C@@H](O)[C@H]1O (stereo partly drawn) [FSA-502002] the listed MIC is 0.25 µg/mL

For record CCC[C@@H]1C[C@@H](C(=O)N[C@@H]([C@H]2O[C@H](SC)[C@H](O)[C@@H](O)[C@H]2O)[C@H](C)Cl)N(C)C1 [Clindamycin, clindamycin, reference compound] the listed MIC is ≤ 0.0313 µg/mL

For record CSC1O[C@H]([C@H](NC(=O)[C@H]2NC[C@@H]3CCCCO[C@H]32)[C@H](C)Cl)C(O)[C@@H](O)[C@H]1O (stereo partly drawn) [FSA-22091] the listed MIC is < 0.0313 µg/mL

For record CSC1O[C@H]([C@H](NC(=O)[C@H]2NC[C@@H]3CC(F)(F)CCO[C@H]32)[C@H](C)Cl)C(O)[C@@H](O)[C@H]1O (stereo partly drawn) [FSA-24036] the listed MIC is ≤ 0.0313 µg/mL

For record CSC1O[C@H]([C@H](NC(=O)[C@H]2NC[C@@H]3CCCO[C@H]32)[C@H](C)Cl)C(O)[C@@H](O)[C@H]1O (stereo partly drawn) [FSA-24041] the listed MIC is 0.0625 µg/mL

For record CSC1O[C@H]([C@H](NC(=O)[C@@H]2[C@@H]3OCCCC[C@H]3CN2C)[C@H](C)Cl)C(O)C(O)[C@H]1O (stereo partly drawn) [FSA-24040] the listed MIC is ≤ 0.0313 µg/mL
